molecular target: human GLP1-R (SNAP-GLP-1R expressed in HEK293 cells) (human) (UniProt P43220); test: cell-based or functional assay
Sequence (P43220 24-463): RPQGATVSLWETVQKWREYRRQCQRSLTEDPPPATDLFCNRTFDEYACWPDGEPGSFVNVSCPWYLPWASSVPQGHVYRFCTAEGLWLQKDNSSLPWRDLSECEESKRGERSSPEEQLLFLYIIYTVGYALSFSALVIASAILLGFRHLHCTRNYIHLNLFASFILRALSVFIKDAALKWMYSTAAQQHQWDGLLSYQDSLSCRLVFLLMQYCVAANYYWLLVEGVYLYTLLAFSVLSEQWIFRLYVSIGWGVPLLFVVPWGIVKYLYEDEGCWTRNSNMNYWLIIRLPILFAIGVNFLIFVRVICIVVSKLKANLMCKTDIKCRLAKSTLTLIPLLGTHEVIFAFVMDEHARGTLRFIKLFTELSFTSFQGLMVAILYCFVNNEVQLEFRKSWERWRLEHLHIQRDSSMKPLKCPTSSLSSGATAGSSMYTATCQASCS
Starred links: 1 amine or outer side, 2 acyl side, 3 side chain; linkers in the order of their positions; H or OH if unused. Non-standard residues stand in square brackets, D forms with d. Groups on a side chain read outwards from the residue. No end group written: not given here. *: point of attachment. C18 diacid = O=C(O)CCCCCCCCCCCCCCCCC(=O)*; γGlu = O=C(O)[C@H](CCC(=O)[*:2])N[*:1]; αMeL = CC(C)C[C@](C)(N)C(=O)O; Dap = NC[C@H](N)C(=O)O; AEEA = NCCOCCOCC(=O)O; Aib = CC(C)(N)C(=O)O
Rule: GLP1R Internalization EC50 of 70 nM or more gives y; anything lower gives n.

binder="YXQGTFTSDFSKXLDKKAQXQFIEYLLAGGPSSGEPPPSEG (synthetic construct; SITE 2: note = 2-Aminoisobutyric Acid; SITE 13: note = alpha-methyl-leucine; SITE 17: note = Lysine is chemically modified through conjugation of the epsilon-amino group of the Lysine side chain with (2-[2-(2-Amino-ethoxy)-ethoxy]-acetyl)-(gamma-Glu)-CO-(CH2) 16-CO2H; SITE 20: n) [Example 26]" label=y
binder="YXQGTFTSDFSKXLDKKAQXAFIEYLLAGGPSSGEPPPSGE (synthetic construct; SITE 2: note = 2-Aminoisobutyric Acid; SITE 13: note = alpha-methyl-leucine; SITE 17: note = Lysine is chemically modified through conjugation of the epsilon-amino group of the Lysine side chain with (2-[2-(2-Amino-ethoxy)-ethoxy]-acetyl)-(gamma-Glu)-CO-(CH2) 18-CO2H; SITE 20: n) [Example 2]" label=n
binder="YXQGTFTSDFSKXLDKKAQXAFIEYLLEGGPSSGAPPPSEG (synthetic construct; SITE 2: note = 2-Aminoisobutyric Acid; SITE 13: note = alpha-methyl-leucine; SITE 17: note = Lysine is chemically modified through conjugation of the epsilon-amino group of the Lysine side chain with (2-[2-(2-Amino-ethoxy)-ethoxy]-acetyl)-(gamma-Glu)-CO-(CH2) 16-CO2H; SITE 20: n) [Example 48]" label=n
binder="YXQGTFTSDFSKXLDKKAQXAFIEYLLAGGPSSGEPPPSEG (synthetic construct; SITE 2: note = 2-Aminoisobutyric Acid; SITE 13: note = alpha-methyl-leucine; SITE 17: note = Lysine is chemically modified through conjugation of the epsilon-amino group of the Lysine side chain with (2-[2-(2-Amino-ethoxy)-ethoxy]-acetyl)-(gamma-Glu)-CO-(CH2) 18-CO2H; SITE 20: n) [Example 1]" label=n
binder="Y[Aib]QGTFTSDFS[Dap][αMeL]LDKK([AEEA-γGlu-C18 diacid])AQ[Aib]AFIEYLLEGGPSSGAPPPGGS-NH2 (ends and bridges not checked) [Example 68]" label=y
binder="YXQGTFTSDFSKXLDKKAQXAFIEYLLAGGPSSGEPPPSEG (synthetic construct; SITE 2: note = 2-Aminoisobutyric Acid; SITE 13: note = alpha-methyl-leucine; SITE 17: note = Lysine is chemically modified through conjugation of the epsilon-amino group of the Lysine side chain with (2-[2-(2-Amino-ethoxy)-ethoxy]-acetyl)-(gamma-Glu)-CO-(CH2) 16-CO2H; SITE 20: n) [Example 22]" label=n
binder="YXQGTFTSDFSXXLDKKAQXAFIEYLLAGGPSSGEPPPSEG (synthetic construct; SITE 2: note = 2-Aminoisobutyric Acid; SITE 12: note = L-ornithine; SITE 13: note = alpha-methyl-leucine; SITE 17: note = Lysine is chemically modified through conjugation of the epsilon-amino group of the Lysine side chain with (2-[2-(2-Amino-ethoxy)-ethoxy]-acetyl)-(gamma-Glu)) [Example 29]" label=y
binder="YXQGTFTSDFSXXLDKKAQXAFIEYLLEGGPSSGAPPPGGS (synthetic construct; SITE 2: note = 2-Aminoisobutyric Acid; SITE 12: note = L-ornithine; SITE 13: note = alpha-methyl-leucine; SITE 17: note = Lysine is chemically modified through conjugation of the epsilon-amino group of the Lysine side chain with (2-[2-(2-Amino-ethoxy)-ethoxy]-acetyl)-(gamma-Glu)) [Example 62]" label=n
binder="YXQGTFTSDFSKXLDKKAQXQFIEYLLEGGPSSGAPPPSEG (synthetic construct; SITE 2: note = 2-Aminoisobutyric Acid; SITE 13: note = alpha-methyl-leucine; SITE 17: note = Lysine is chemically modified through conjugation of the epsilon-amino group of the Lysine side chain with (2-[2-(2-Amino-ethoxy)-ethoxy]-acetyl)-(gamma-Glu)-CO-(CH2) 16-CO2H; SITE 20: n) [Example 51]" label=y
